Values from ChEMBL document CHEMBL5120967

procedure.details: Anti-osteoporosis activity C57/BL6 mouse bone marrow macrophage cells assessed as inhibition of RANKL-induced osteoclastogenesis at 1 uM measured after 5 to 6 days in presence of M-CSF and RNKL by TRAP staining microscopic analysis
Assay type: functional, BMDM
Parameters: scale not given: the % may be the effect or the level left
condition.parameters: time 5-6 day
measured.attribute: Activity (%)
Express it in %; write the number only.

For the compound shown here, Cc1cccc(C)c1NC(=O)c1cc2c([nH]c3ccccc32)c(CCc2ccc(O)cc2)n1 , give the reported Activity.
23.8

Param item = O=C(c1cc2c([nH]c3ccccc32)c(CCc2ccccc2)n1)N1CCOCC1 ; retrieve measured Activity.
32.6

# get_value(readout='Activity', item= COc1ccc(CCc2nc(C(=O)Nc3c(C)cccc3C)cc3c2[nH]c2ccccc23)cc1 )
75.7

Item under review: O=C(NCc1ccccc1)c1cc2c([nH]c3ccccc32)c(CCc2ccccc2)n1 . Reported Activity?
0

Which measured Activity value corresponds to O=C(Nc1cc[nH]n1)c1cc2c([nH]c3ccccc32)c(CCc2ccccc2)n1 ?
39.9

Which value of Activity has been reported for Cc1cccc(C)c1NC(=O)c1cc2c([nH]c3ccccc32)c(CCc2ccncc2)n1 in the records?
79.1

Requested read-out: Activity. Entry: O=C(NC1CCCCC1)c1cc2c([nH]c3ccccc32)c(CCc2ccccc2)n1
0

Find the recorded Activity belonging to Cc1cccc(C)c1NC(=O)c1cc2c([nH]c3ccccc32)c(CCc2cc(F)cc(F)c2)n1 and report it.
35.2

Which Activity value is on record for Cc1cccc(C)c1NC(=O)c1cc2c([nH]c3ccccc32)c(CCc2ncc[nH]2)n1 ?
28.6

Tell me the measured Activity of O=C(Nc1ccccn1)c1cc2c([nH]c3ccccc32)c(CCc2ccccc2)n1 , please.
36.1

Could you tell me which Activity is on file for Cc1cccc(C)c1NC(=O)c1cc2c([nH]c3ccccc32)c(CCc2ccc(Cl)cc2)n1 ?
52.5

Consider the compound shown here: Cc1cccc(C)c1NC(=O)C(Cc1c[nH]c2ccccc12)NCCCc1ccccc1 (configuration not stated) What is its recorded Activity?
32
